Tested on: Klebsiella 63
assay.method.text: MIC, test tube series dilution test, Klebsiella 63
Assay type: cell-based
details: Klebsiella 63; 24 hours, 37°C
In this section we review reported MIC values for a set of molecules.

molecule	readout.unit	MIC
CC1(C)S[C@@H]2[C@H](NC(=O)[C@H](NC(=O)c3ccc(NC(=O)C4=CCCCC4)cc3)c3ccccc3)C(=O)N2[C@H]1C(=O)O	U/ml	32
CC1(C)S[C@@H]2[C@H](NC(=O)[C@H](NC(=O)CNC(=O)c3ccc(NC(=O)C4CCCC4)cc3)c3ccccc3)C(=O)N2[C@H]1C(=O)O	U/ml	32
CC1(C)S[C@@H]2[C@H](NC(=O)[C@H](NC(=O)c3ccc(NC(=O)c4ccccc4)cc3)c3ccccc3)C(=O)N2[C@H]1C(=O)O	U/ml	32
CC1(C)S[C@@H]2[C@H](NC(=O)[C@H](NC(=O)c3ccc(NC(=O)CC4C=CCC4)cc3)c3ccccc3)C(=O)N2[C@H]1C(=O)[O-].[Na+] (stereo partly drawn)	U/ml	32
CC1(C)S[C@@H]2[C@H](NC(=O)[C@H](NC(=O)c3ccc(NC(=O)CN=[N+]=[N-])cc3)c3ccccc3)C(=O)N2[C@H]1C(=O)O	U/ml	64
CC1(C)S[C@@H]2[C@H](NC(=O)[C@H](NC(=O)CNC(=O)c3ccc(NC(=O)C4CC4)cc3)c3ccccc3)C(=O)N2[C@H]1C(=O)O	U/ml	64
CNC(=O)Nc1ccc(C(=O)N[C@@H](C(=O)N[C@@H]2C(=O)N3[C@@H]2SC(C)(C)[C@@H]3C(=O)O)c2ccccc2)cc1	U/ml	128
CC1(C)S[C@@H]2[C@H](NC(=O)[C@H](NC(=O)c3ccc(NC(N)=O)cc3)c3ccccc3)C(=O)N2[C@H]1C(=O)O	U/ml	256
CC1(C)S[C@@H]2[C@H](NC(=O)[C@H](NC(=O)c3ccc(NC(=O)C4CCC4)cc3)c3ccccc3)C(=O)N2[C@H]1C(=O)O	U/ml	64
CC1(C)S[C@@H]2[C@H](NC(=O)[C@H](NC(=O)c3ccc(NC(=O)C4CCC=CCC4)cc3)c3ccccc3)C(=O)N2[C@H]1C(=O)O	U/ml	32
CC1(C)S[C@@H]2[C@H](NC(=O)[C@H](NC(=O)c3ccc(NC(=O)C=Cc4ccccc4)cc3)c3ccccc3)C(=O)N2[C@H]1C(=O)O	U/ml	8
CC1(C)S[C@@H]2[C@H](NC(=O)[C@H](NC(=O)c3ccc([N+](=O)[O-])cc3)c3ccccc3)C(=O)N2[C@H]1C(=O)O	U/ml	128

----------
Test system: Staph. aureus 1756
assay.method.text: MIC, test tube series dilution test, Staph. aureus 1756
Assay type: cell-based, Staphylococcus aureus
details: Staph. aureus 1756; 24 hours, 37°C
# note: exactly 60 U/ml is not below, so it is false; use true for MIC strictly under it

compound	system.under.test	category
CC1(C)S[C@@H]2[C@H](NC(=O)[C@H](NC(=O)c3ccc(NC(=O)CC4C=CCC4)cc3)c3ccccc3)C(=O)N2[C@H]1C(=O)[O-].[Na+] (some centres unmarked)	Staph. aureus 1756	true
CC1(C)S[C@@H]2[C@H](NC(=O)[C@H](NC(=O)c3ccc(NC=O)cc3)c3ccccc3)C(=O)N2[C@H]1C(=O)O	Staph. aureus 1756	true
CC1(C)S[C@@H]2[C@H](NC(=O)[C@H](NC(=O)c3ccc(NC(=O)c4ccccc4)cc3)c3ccccc3)C(=O)N2[C@H]1C(=O)O	Staph. aureus 1756	false
CC1(C)S[C@@H]2[C@H](NC(=O)[C@H](NC(=O)c3ccc(NC(=O)Nc4ccccc4)cc3)c3ccccc3)C(=O)N2[C@H]1C(=O)O	Staph. aureus 1756	true
CC1(C)S[C@@H]2[C@H](NC(=O)[C@H](NC(=O)c3ccc(NC(=O)C4=CCCCC4)cc3)c3ccccc3)C(=O)N2[C@H]1C(=O)O	Staph. aureus 1756	false
CC1(C)S[C@@H]2[C@H](NC(=O)[C@H](NC(=O)c3ccc(NC(N)=O)cc3)c3ccccc3)C(=O)N2[C@H]1C(=O)O	Staph. aureus 1756	false
COc1cc(OC)cc(C(=O)Nc2ccc(C(=O)N[C@@H](C(=O)N[C@@H]3C(=O)N4[C@@H]3SC(C)(C)[C@@H]4C(=O)O)c3ccccc3)cc2)c1	Staph. aureus 1756	true
CC1(C)S[C@@H]2[C@H](NC(=O)[C@H](NC(=O)c3ccc(NC(=O)C=Cc4ccccc4)cc3)c3ccccc3)C(=O)N2[C@H]1C(=O)O	Staph. aureus 1756	true
CNC(=O)Nc1ccc(C(=O)N[C@@H](C(=O)N[C@@H]2C(=O)N3[C@@H]2SC(C)(C)[C@@H]3C(=O)O)c2ccccc2)cc1	Staph. aureus 1756	false
CC1(C)S[C@@H]2[C@H](NC(=O)[C@H](NC(=O)CNC(=O)c3ccc(NC(=O)C4CC4)cc3)c3ccccc3)C(=O)N2[C@H]1C(=O)O	Staph. aureus 1756	true
COc1ccc(C(=O)Nc2ccc(C(=O)N[C@@H](C(=O)N[C@@H]3C(=O)N4[C@@H]3SC(C)(C)[C@@H]4C(=O)O)c3ccccc3)cc2)cc1	Staph. aureus 1756	false
CNC(=S)Nc1ccc(C(=O)N[C@@H](C(=O)N[C@@H]2C(=O)N3[C@@H]2SC(C)(C)[C@@H]3C(=O)O)c2ccccc2)cc1	Staph. aureus 1756	false
CC1(C)S[C@@H]2[C@H](NC(=O)[C@H](NC(=O)c3ccc(NC(=O)C4CC4)cc3)c3ccccc3)C(=O)N2[C@H]1C(=O)O	Staph. aureus 1756	false
CC1(C)S[C@@H]2[C@H](NC(=O)[C@H](NC(=O)c3ccc(NC(=O)C4CC=CCC4)cc3)c3ccccc3)C(=O)N2[C@H]1C(=O)O (single isomer, unassigned)	Staph. aureus 1756	true
CC1(C)S[C@@H]2[C@H](NC(=O)[C@H](NC(=O)c3ccc(NC(=O)CN=[N+]=[N-])cc3)c3ccccc3)C(=O)N2[C@H]1C(=O)O	Staph. aureus 1756	false
CC1(C)S[C@@H]2[C@H](NC(=O)[C@H](N)c3ccccc3)C(=O)N2[C@H]1C(=O)O [Ampicillin, D(-)-α-aminobenzylpenicillin, reference compound]	Staph. aureus 1756	false
CC1(C)S[C@@H]2[C@H](NC(=O)[C@H](NC(=O)c3ccc(NC(=O)c4ccc(N)cc4)cc3)c3ccccc3)C(=O)N2[C@H]1C(=O)O	Staph. aureus 1756	true
CC1(C)S[C@@H]2[C@H](NC(=O)[C@H](NC(=O)c3ccc(N)cc3)c3ccccc3)C(=O)N2[C@H]1C(=O)O	Staph. aureus 1756	true
